// provenance: ChEMBL document CHEMBL1914414

# assayed-target: Cholinesterase (Homo sapiens, UniProt P06276)
# Sequence (P06276 whole entry): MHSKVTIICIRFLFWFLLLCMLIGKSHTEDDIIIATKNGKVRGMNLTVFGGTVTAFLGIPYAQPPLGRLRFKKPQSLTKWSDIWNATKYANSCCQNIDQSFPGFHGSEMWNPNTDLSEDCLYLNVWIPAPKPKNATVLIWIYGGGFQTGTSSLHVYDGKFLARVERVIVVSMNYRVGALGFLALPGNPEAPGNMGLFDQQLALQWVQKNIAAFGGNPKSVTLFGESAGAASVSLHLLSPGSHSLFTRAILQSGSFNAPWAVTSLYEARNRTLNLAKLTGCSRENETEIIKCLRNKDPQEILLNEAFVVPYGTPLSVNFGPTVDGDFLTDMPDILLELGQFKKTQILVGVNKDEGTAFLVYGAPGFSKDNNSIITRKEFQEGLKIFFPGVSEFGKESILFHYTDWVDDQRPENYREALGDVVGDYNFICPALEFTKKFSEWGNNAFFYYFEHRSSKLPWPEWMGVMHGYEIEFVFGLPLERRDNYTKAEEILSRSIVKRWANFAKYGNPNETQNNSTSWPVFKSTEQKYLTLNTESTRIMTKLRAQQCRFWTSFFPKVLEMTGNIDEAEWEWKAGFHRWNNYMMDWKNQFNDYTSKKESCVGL
pIC50: −log10 of the molar value.
The following molecules are shown together with reported pIC50 values.

Answered examples (4):
{"molecule": "CC(CC(=O)C[C@@H](C)[C@H]1CC(=O)[C@@]2(C)C3=C(C(=O)C[C@]12C)[C@@]1(C)CC[C@H](O)C(C)(C)[C@@H]1C[C@@H]3O)C(=O)O (some centres not stated)", "pIC50": "< 3.70"}
{"molecule": "C[C@H](CCC(=O)O)[C@H]1CC(=O)[C@@]2(C)C3=C(C(=O)C[C@]12C)[C@@]1(C)CC[C@H](O)C(C)(C)[C@@H]1C[C@@H]3O", "pIC50": 3.73}
{"molecule": "COC(=O)CC[C@@H](C)[C@H]1CC(=O)[C@@]2(C)C3=C(C(=O)[C@@H](OC(C)=O)[C@]12C)[C@@]1(C)CC[C@H](O)C(C)(C)[C@@H]1CC3=O [METHYL LUCIDENATE E2]", "pIC50": "< 3.70"}
{"molecule": "C[C@H](CCC(=O)O)[C@H]1CC(=O)[C@@]2(C)C3=C(C(=O)C[C@]12C)[C@@]1(C)CCC(=O)C(C)(C)[C@@H]1C[C@@H]3O", "pIC50": "< 3.70"}

Problem: Which pIC50 value is on record for C/C(=C\CC[C@@H](C)[C@H]1CC[C@@]2(C)C3=C(CC[C@]12C)[C@@]1(C)CC[C@H](O)C(C)(C)[C@@H]1CC3=O)CO ?
Solution: 3.81

Problem: Which pIC50 value is on record for C[C@H](CCC=C(CO)CO)[C@H]1CC[C@@]2(C)C3=CC[C@H]4C(C)(C)C(=O)CC[C@]4(C)C3=CC[C@]12C ?
Solution: < 3.70

Problem: Which pIC50 value is on record for C[C@H](CC(=O)C[C@@H](C)[C@H]1CC(=O)[C@@]2(C)C3=C(C(=O)C[C@]12C)[C@@]1(C)CCC(=O)C(C)(C)[C@@H]1CC3=O)C(=O)O ?
Solution: < 3.70
